- protocol.text: Toxicity liver stage against HepG2, at 10uM
- Type: cell-based
- Design: test concentration 10 uM, cell line HepG2-A16-CD81EGFP
- experimental.conditions: human, HepG2-A16-CD81EGFP cells; read-out: INHIBITION

| compound | cytotoxicity at 10 µM [%] |
| --- | --- |
| CCNC(=O)C1CCN(c2cc(-c3ccccc3)nc3cc(C)nn23)C1 (stereo not given) | -2.97 |
| CCN1CCN(C(C)CNC(=O)Nc2cnn(CC)c2)CC1 (stereo not given) | -12.9 |
| COCc1noc(CN2CCCCC2CCc2cccs2)n1 (stereo not given) | 0.642 |
| CN(C1CCN(c2ccccn2)CC1)S(=O)(=O)c1cccs1 | 13.3 |
| CC(=O)N(Cc1noc(C)n1)C1CCN(Cc2ccccc2C#N)C1 (stereo not given) | -1.76 |
| COCCC(=O)N1CCN(CC(C)C)c2nc(C)ccc2C1 | 11.3 |
| Cn1nc(C2CCCN(Cc3cccc(F)c3)C2)c2nccnc21 (stereo not given) | -3.96 |
| Cc1ccc(C(=O)N2CCc3ncnc(C)c3CC2)cc1F | 11.5 |
| Cc1cccc2sc(NC(=O)CN3CCC(C)CC3)nc12 | 2.89 |
| CCn1cc(C(=O)NCc2cccnc2N(C)Cc2ccccc2)cn1 | 1.18 |
| Cc1ccsc1[C@@H]1CCN(C(=O)CCc2nc3ccccc3[nH]2)C[C@H]1O | -1.67 |
| OCCNc1nccc(-c2c[nH]nc2-c2ccco2)n1 | -6.47 |
| CC(C)CNC(=O)Cn1ccc2ccccc21 | -43.4 |
| Cn1cnc2c1CCN(CC(O)c1ccc(S(C)(=O)=O)cc1)C2 (stereo not given) | -3.3 |
| CN(Cc1ccc(F)c(F)c1)Cc1cc2c(cc1Br)OCCO2 | -140 |
| COc1cccn(CC(=O)N2CCCC3(CCOCC3)C2)c1=O | 8.78 |
| O=c1cc(CN2CCCC2)nc2n1CCCN(CC1CCOCC1)C2 | 9.97 |
| Cc1noc(C)c1CN1C[C@H](OCC(=O)N(C)C)[C@H]2OCCC[C@H]21 | 8.34 |
| CCN1CC2(CCC1=O)CCN(Cc1nncn1C)CC2 | 4.46 |
| O=C(NCCN1CCOCC1)c1ccnn1-c1ccc2ccccn12 | 10.9 |
| CN(CCc1ccccn1)C(=O)CCC1CCCN(c2cnccn2)C1 (stereo not given) | 4.13 |
| CCc1nnc(SC2CCN(c3ccccc3F)C2=O)n1C (stereo not given) | 1.77 |
| O=C1NCCN(C(=O)c2cn3ccsc3n2)C1Cc1ccccc1 (stereo not given) | -9.51 |
| Nc1nccc(C2CCN(c3cnccn3)C2)n1 (stereo not given) | 1.43 |
| CCn1nc(C)c2ncnc(NCCCN3CCOCC3)c21 | 2.06 |
| NC(=O)c1ccc(C(=O)N(Cc2ccc(O)cc2)CC2CC2)cc1 | 8.19 |
| Clc1ccc(OCCNC2(c3ccc(Br)cc3)CCOCC2)cc1 | 2.67 |
| Cc1cnc(CNC(=O)[C@@]23CCO[C@@H]2CCN(c2ncccn2)C3)cn1 | -100 |
| CC(Nc1cccc2c1OCCO2)C(=O)Nc1ccc(S(N)(=O)=O)cc1 (stereo not given) | -3.93 |
| CC(NCc1ccnc(OC2CCC2)c1)c1cnn(C)c1 (stereo not given) | 5.64 |

---

- protocol.text: Toxicity liver stage against HepG2, at 10uM
- Format: cell-based
- Set-up: test concentration 10 uM, cell line HepG2-A16-CD81EGFP
- experimental.conditions: human, HepG2-A16-CD81EGFP cells; read-out: INHIBITION

| compound | cytotoxicity at 10 µM [%] |
| --- | --- |
| CCCSCC(=O)NS(=O)(=O)c1ccc2c(c1)OCCO2 | -9.78 |
| CC(C)n1cnnc1CN(C)C(=O)c1cccnc1O | 2.1 |
| COCCNC(=O)C1(Cc2ccccc2-c2ccncc2)CCOCC1 | -26.3 |
| CC(C)c1nnc(CNc2nc(-c3cccnc3)nc3c2CCC3)n1C | 8.74 |
| COc1ccc(C)cc1S(=O)(=O)NCC(c1cccn1C)N(C)C (configuration not stated) | -11.9 |
| Cc1csc(CN2CCn3c(COc4cccnc4)cnc3C2C)n1 (configuration not stated) | -98.4 |
| CCn1c(C)nnc1CN(C)C1CCN(CCc2cccs2)C1 (configuration not stated) | -7.12 |
| O=C(NCCCF)N1CCC(n2ccc(C(F)(F)F)n2)CC1 | -5.29 |
| Cc1ccc(C(=O)NC(CN2CCCC2=O)c2ccccc2)cn1 (configuration not stated) | -4.6 |
| CCOc1ccc(OCCN2CCC(N3CCNC3=O)CC2)cc1 | 41.3 |
| Cc1oc(-c2cccc(F)c2F)nc1CN(C)CCO | -9.49 |
| CCO[C@@H]1CO[C@@]2(CCN(Cc3ccc4c(c3)OCO4)C2)C1 | 5.53 |
| CSCCCN1CCCC1c1noc(C)n1 (configuration not stated) | -7.59 |
| c1c[nH]c(CN2CCC3(CC2)COCCN(CCN2CCCC2)C3)c1 | -3.86 |
| COCC1CC2(CCN(Cc3nc(C)cs3)CC2)CO1 (configuration not stated) | -111 |
| CC(=O)N1[C@H](Cn2cncn2)C[C@@H]2CN(C(=O)c3ccoc3)CC[C@@H]21 | -3.42 |
| Cn1cc(C(=O)N2CC[C@@H]3[C@@H]2CCN3c2ccccn2)cn1 | -0.0807 |

---

- protocol.text: Toxicity liver stage against HepG2, at 10uM
- Type: cell-based
- Design: test concentration 10 uM, cell line HepG2-A16-CD81EGFP
- experimental.conditions: human, HepG2-A16-CD81EGFP cells; read-out: INHIBITION
reported.metric: cytotoxicity at 10 µM (%)

| compound | endpoint.value |
| --- | --- |
| Fc1cnc(N2CCN(Cc3ccc(-c4cc[nH]n4)o3)CC2)nc1 | -6 |
| Cc1nc(C(=O)N2CCCC(c3cc(C(F)(F)F)[nH]n3)C2)c[nH]1 (stereo not given) | -0.945 |
| Cc1cc(N2CCC(c3ncc[nH]3)CC2)nc(N)n1 | -7.54 |
| CC(C(=O)Nc1cccc(Cl)c1SC(F)F)S(C)(=O)=O (stereo not given) | 0.685 |
| CCN1CCO[C@@H]2CN(C(=O)c3cocn3)C[C@@H]2C1 | 0.933 |

---

Recorded cytotoxicity at 10 µM values for a group of compounds are listed next.
- protocol.text: Toxicity liver stage against HepG2, at 10uM
- Assay type: cell-based
- Design: test concentration 10 uM, cell line HepG2-A16-CD81EGFP
- experimental.conditions: human, HepG2-A16-CD81EGFP cells; read-out: INHIBITION
reported.metric: cytotoxicity at 10 µM (%)

| compound | reported.metric | endpoint.value |
| --- | --- | --- |
| O=C(c1cnccn1)N1C[C@H]2CC[C@@H](C1)N(S(=O)(=O)c1cccnc1)C2 | cytotoxicity at 10 µM | -2.03 |
| Fc1ccc(-c2nccnc2C2CCCNC2)cc1 (stereo unspecified) | cytotoxicity at 10 µM | -23.8 |
| CCn1cnnc1CNC(=O)N1CCC(Cc2cccnc2)CC1 | cytotoxicity at 10 µM | 4.38 |
| CS(=O)(=O)CCC(=O)N1CCC(c2cccc(F)c2)C1 (stereo unspecified) | cytotoxicity at 10 µM | 3.71 |
| CS(=O)(=O)NCc1nnc2n1CCN(Cc1ccccn1)C2 | cytotoxicity at 10 µM | -75.5 |
| Cn1nc(CN2CCCCC2)c2c1CN(Cc1ccoc1)C2 | cytotoxicity at 10 µM | -0.449 |
| COc1ccc(OCCNCCn2cccn2)cc1 | cytotoxicity at 10 µM | 2.05 |
| O=C1CCC2(CCCN(CCn3cc(Cl)cn3)C2)CN1C1CCCC1 (stereo unspecified) | cytotoxicity at 10 µM | 4.71 |
| CN(Cc1ccccc1O)C(=O)NC1CCCN(c2ncccn2)C1 (stereo unspecified) | cytotoxicity at 10 µM | -0.421 |
| Cc1cccnc1NC(=O)NCc1cccnc1OC(C)C | cytotoxicity at 10 µM | -8.75 |
| Cc1cc(C)cc(OCCC(=O)N2CCOCC2c2ncon2)c1 (stereo unspecified) | cytotoxicity at 10 µM | -8.72 |

---

- protocol.text: Toxicity liver stage against HepG2, at 10uM
- Type: cell-based
- Set-up: test concentration 10 uM, cell line HepG2-A16-CD81EGFP
- experimental.conditions: human, HepG2-A16-CD81EGFP cells; read-out: INHIBITION
Recorded cytotoxicity at 10 µM values for a group of compounds are listed next.

| compound | cytotoxicity at 10 µM (%) |
| --- | --- |
| O=C(c1cccn1-c1ccc2c(c1)OCCO2)N1CCCC1 | -9.42 |
| COc1cc(F)c(NC(=O)N(C)Cc2cc(C)on2)cc1F | -4.25 |
| CCCN(CCC)c1ncc(S(=O)(=O)c2ccc(OC)cc2)c(N)n1 | 7.79 |
| NC(=O)C1CCN(C(=O)NCCOc2ccc3c(c2)CCC3)CC1 | -7.07 |
| O=C1NC[C@H]2CN(C3CCOCC3)CCN12 | -1.95 |
| COc1ccc2c(c1)OCC(Cc1cnccc1N)C2 (stereo not given) | 4.28 |
| O=S(=O)(c1cccnc1)N1CCN(CCn2ccnc2)CC1 | -31.2 |
| c1cc2c(c(-c3cc(N4CCOCC4)ncn3)c1)CCNC2 | -22.5 |
| Cc1noc(C)c1-c1cc(CCC2CN(C(=O)C(C)C)CCO2)ncn1 (stereo not given) | 4.16 |
| COc1ccc(C(=O)O)cc1-c1cccc(C(C)N(C)C)c1 (stereo not given) | -7.13 |
| CCC(=O)N1CC[C@@H]2[C@H](CC1)N(Cc1cccc(C)n1)CCS2(=O)=O | -1.31 |
| Cc1nccn1CCC(=O)N1CCCN(CCCc2ccccc2)CC1 | -13.6 |
| Cn1cc(-c2ncc(C(=O)NCCCn3ccccc3=O)s2)cn1 | 4.13 |
| COc1cccc(CNC(=O)CCNS(=O)(=O)c2ccc(C)cc2)c1 | -137 |
| Cc1nc(C2CCCN2CCCS(=O)(=O)N(C)C)no1 (stereo not given) | -4.69 |
| CC(C(=O)NCc1ccnc(N(C)C)c1)n1cncn1 (stereo not given) | -9.7 |
| Fc1ccc(-c2n[nH]cc2-c2ccnc(NCCN3CCCC3)n2)cc1 | 9.05 |
| CCc1nccn1C1CCCN(C(=O)CCc2nccs2)C1 (stereo not given) | -14.3 |
| COc1ccc2c(O)c(NC(=O)NCC3CC3)cnc2c1 | -0.799 |
| CC(C)c1nnc(CN(C)Cc2ccccc2-c2ccccc2)o1 | 5.98 |
| Cc1nc(C)n(CC(C)C(=O)N2CCC(NS(C)(=O)=O)CC2)n1 (stereo not given) | -4.4 |
| NC(=O)CCn1ccc(NC(=O)c2ccc(Br)o2)n1 | -1.39 |
| CCc1nc(C)c(CN2CCOC(CCCC(C)C)C2)[nH]1 (stereo not given) | -20 |
| CCOc1ccc(-c2c(C#N)c(N)nc3c2COCC3)cn1 | -0.339 |
| O=C(NCC1CC1)[C@H]1C[C@H]2OCC[C@H]2N(Cc2ccsc2)C1 | 2.47 |
